Molecular target: TrkB (Rattus norvegicus, UniProt Q63604)
Construct: in primary cultures of rat cortical neurons; endogenous in cells; host or cells: primary rat cortical neurons
Sequence (Q63604 32-821): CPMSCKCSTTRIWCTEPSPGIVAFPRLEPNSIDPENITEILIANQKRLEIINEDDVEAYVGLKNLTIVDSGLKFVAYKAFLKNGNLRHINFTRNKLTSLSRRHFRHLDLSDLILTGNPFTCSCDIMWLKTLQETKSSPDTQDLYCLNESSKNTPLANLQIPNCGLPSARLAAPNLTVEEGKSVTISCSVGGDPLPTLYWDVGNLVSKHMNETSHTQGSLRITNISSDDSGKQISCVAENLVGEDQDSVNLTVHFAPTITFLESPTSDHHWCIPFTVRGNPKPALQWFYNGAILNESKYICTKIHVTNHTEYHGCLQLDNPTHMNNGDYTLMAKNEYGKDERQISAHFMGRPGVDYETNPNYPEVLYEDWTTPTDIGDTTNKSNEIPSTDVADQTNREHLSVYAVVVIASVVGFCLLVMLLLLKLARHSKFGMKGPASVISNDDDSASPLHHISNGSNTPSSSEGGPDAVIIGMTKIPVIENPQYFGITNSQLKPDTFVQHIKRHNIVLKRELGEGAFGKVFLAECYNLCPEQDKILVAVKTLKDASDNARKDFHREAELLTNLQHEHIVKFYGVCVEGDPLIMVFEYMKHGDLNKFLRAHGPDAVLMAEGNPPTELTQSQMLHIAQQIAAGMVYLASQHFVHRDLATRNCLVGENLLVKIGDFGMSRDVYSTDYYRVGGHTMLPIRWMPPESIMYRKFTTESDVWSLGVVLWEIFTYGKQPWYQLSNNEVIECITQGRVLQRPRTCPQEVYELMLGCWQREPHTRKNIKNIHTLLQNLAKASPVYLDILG
Test: TrkB phosphorylation, western blot, primary rat cortical neuronal culture
Format: cell-based
Design: key: “+”=increased phosphorylation; “−”=decreased phosphorylation; “nc”=no change
quantity.kind: pTrkB/β-actin

compound=O=C(NCCc1c[nH]c2ccc(O)cc12)c1ccc(F)cn1 quantity_kind=pTrkB/β-actin experimental_result=+
compound=O=C(NCCc1c[nH]c2ccc(O)cc12)c1ccccn1 quantity_kind=pTrkB/β-actin experimental_result=+
compound="CC1(C(=O)NCCc2c[nH]c3ccc(O)cc23)CCCNC1=O (stereo not drawn)" quantity_kind=pTrkB/β-actin experimental_result=+

* * *

Biological target: TrkB (Homo sapiens, UniProt Q16620)
Sequence (Q16620 32-822): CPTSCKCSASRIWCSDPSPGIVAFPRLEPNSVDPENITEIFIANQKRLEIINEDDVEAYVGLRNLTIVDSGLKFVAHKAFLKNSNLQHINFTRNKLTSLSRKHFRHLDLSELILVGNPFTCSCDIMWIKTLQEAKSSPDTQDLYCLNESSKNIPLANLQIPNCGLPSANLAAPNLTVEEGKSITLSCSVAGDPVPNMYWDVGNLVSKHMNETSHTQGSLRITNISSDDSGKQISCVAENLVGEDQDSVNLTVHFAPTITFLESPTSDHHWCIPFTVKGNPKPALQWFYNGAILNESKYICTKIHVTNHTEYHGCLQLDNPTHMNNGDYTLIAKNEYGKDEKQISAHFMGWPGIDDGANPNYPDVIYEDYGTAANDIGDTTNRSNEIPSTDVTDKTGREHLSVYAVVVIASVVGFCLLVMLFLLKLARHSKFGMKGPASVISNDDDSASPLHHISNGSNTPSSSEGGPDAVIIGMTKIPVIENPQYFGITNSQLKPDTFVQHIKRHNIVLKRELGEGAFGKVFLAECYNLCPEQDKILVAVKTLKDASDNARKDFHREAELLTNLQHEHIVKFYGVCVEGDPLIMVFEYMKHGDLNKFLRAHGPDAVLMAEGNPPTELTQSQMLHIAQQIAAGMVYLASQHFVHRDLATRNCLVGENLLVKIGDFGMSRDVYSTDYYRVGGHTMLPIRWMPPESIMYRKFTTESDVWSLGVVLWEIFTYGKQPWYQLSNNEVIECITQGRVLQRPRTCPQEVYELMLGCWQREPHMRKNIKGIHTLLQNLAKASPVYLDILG
Assay: TrkB phosphorylation, western blot, NIH 3T3 cells expressing human TrkB
Assay type: cell-based
Parameters: expressed in transfected cells; host or cells: NIH/3T3 (NIH-3T3-TrkB) cells; key: “+”=increased phosphorylation; “−”=decreased phosphorylation; “nc”=no change
Details: NIH 3T3 - TrkB cells, western blot
quantity.kind: pTrkB/β-actin

compound=O=C(NCCc1c[nH]c2ccc(O)cc12)c1ccncc1 quantity_kind=pTrkB/β-actin experimental_result=+
compound="COc1ccc2[nH]cc(CCNC(=O)C3CCCNC3=O)c2c1 (stereo not shown)" quantity_kind=pTrkB/β-actin experimental_result=−
compound="O=C1NCCCC1C(=O)NCCc1c[nH]c2ccc(O)cc12 (stereo not shown)" quantity_kind=pTrkB/β-actin experimental_result=+
compound="O=C1NCCCC1C(=O)NCCc1c[nH]c2ccccc12 (stereo not shown)" quantity_kind=pTrkB/β-actin experimental_result=+
compound=O=C(NCCc1c[nH]c2ccc(O)cc12)c1ccccc1 quantity_kind=pTrkB/β-actin experimental_result=+

Noted pTrkB/β-actin for O=C(NCCc1c[nH]c2ccc(O)cc12)c1cccnc1 , tested on TrkB (Homo sapiens, UniProt Q16620): nc

Noted pTrkB/β-actin for O=C(NCCc1c[nH]c2ccc(O)cc12)c1ccccn1 , tested on TrkB (Homo sapiens, UniProt Q16620): −

Noted pTrkB/β-actin for CC1(C(=O)NCCc2c[nH]c3ccc(O)cc23)CCCNC1=O (stereo not shown) , tested on TrkB (Homo sapiens, UniProt Q16620): +

Noted pTrkB/β-actin for O=C(NCCc1c[nH]c2ccc(O)cc12)c1cccnc1F , tested on TrkB (Homo sapiens, UniProt Q16620): +

Noted pTrkB/β-actin for O=C(NCCc1c[nH]c2ccc(O)cc12)c1cncc(F)c1 , tested on TrkB (Homo sapiens, UniProt Q16620): +
